test system: NET; assay type: binding, rat; details: Ki ratio

[
  {
    "compound": "CN1[C@@H]2CC[C@H]1C[C@H](NC(c1ccc(F)cc1)c1ccc(F)cc1)C2 [Compound 2b]",
    "Binding selectivity NET/DAT": 23
  },
  {
    "compound": "CN(C(c1ccc(F)cc1)c1ccc(F)cc1)[C@H]1C[C@H]2CC[C@@H](C1)N2C [Compound 2c]",
    "Binding selectivity NET/DAT": 68
  },
  {
    "compound": "CN1[C@@H]2CC[C@H]1C[C@@H](NC(c1ccc(F)cc1)c1ccc(F)cc1)C2 [Compound 2a]",
    "Binding selectivity NET/DAT": 160
  },
  {
    "compound": "C=CCN1[C@@H]2CC[C@H]1C[C@@H](NC(c1ccc(F)cc1)c1ccc(F)cc1)C2 [Compound 2h]",
    "Binding selectivity NET/DAT": 208
  },
  {
    "compound": "Fc1ccc(C(N[C@H]2C[C@H]3CC[C@@H](C2)N3)c2ccc(F)cc2)cc1 [Compound 2g]",
    "Binding selectivity NET/DAT": 118
  },
  {
    "compound": "CN1[C@@H]2CC[C@H]1C[C@@H](NC(c1ccccc1)c1ccc(Cl)cc1)C2 (stereo partly drawn) [Compound 2e]",
    "Binding selectivity NET/DAT": 87
  },
  {
    "compound": "CCCCN1[C@@H]2CC[C@H]1C[C@@H](NC(c1ccc(F)cc1)c1ccc(F)cc1)C2 [Compound 2i]",
    "Binding selectivity NET/DAT": 136
  },
  {
    "compound": "Fc1ccc(C(N[C@H]2C[C@H]3CC[C@@H](C2)N3CCCCc2ccccc2)c2ccc(F)cc2)cc1 [Compound 2j]",
    "Binding selectivity NET/DAT": 139
  },
  {
    "compound": "CN1[C@@H]2CC[C@H]1C[C@@H](NC(c1ccc(Cl)c(Cl)c1)c1ccc(Cl)c(Cl)c1)C2 [Compound 2f]",
    "Binding selectivity NET/DAT": 48
  }
]
